The reported numbers originate from patent EP0346760A2.

Tested on: Strept. faecium (D)
Experiment: Agar dilution test (Lorian), antibacterial activity
Assay type: cell-based
Conditions: Enterococcus faecium; Strept. faecium (D); Müller Hinton Agar, 16 to 18 h at 37°C; read-out: MIC
Description: Die antibakterielle Wirksamkeit der erfindungsgemäßen Verbindungen wurde im Agar-Verdünnungstest nach Lorian (Antibiotics in Laboratory Medicine, Williams & Wilkins, Baltimore/London, 1980) bestimmt. Dabei wurden die Präparate in einer geometrischen Verdünnungsreihe mit dem Faktor 2 in Müller Hinton Agar verdünnt. Eine Petrischale enthielt nur Müller Hinton Agar und diente zur Kontrolle des Bakterienwachstums. […]
Each item that follows carries a reported MIC.
Give just the number in µg/mL; leave the unit off.

Challenge: Recorded MIC of CCCCOCC1(O)OC(C2CC(C)C(C3(C)CCC(C4(C)CC(C)C5(OC(CC6CCC(C)C(C(C)C(=O)O)O6)CC(OC)C5C)O4)O3)O2)C(C)CC1C (centres unmarked) [Beispiel 8] , please.
Response given: 3.13

====

tested on: Vaccina; type: cell-based; settings: HeLa or Vero cells, 72 h CPE, about 50 % of the cells survive
Measured MHK, listed per entry.

Solved cases (3 shown):
compound | targetDesc | MHK
COCC1(O)OC(C2CC(C)C(C3(C)CCC(C4(C)CC(C)C5(OC(CC6CCC(C)C(C(C)C(=O)O)O6)CC(OC)C5C)O4)O3)O2)C(C)CC1C (stereo not shown) | Vaccina | 0,49 µg/ml
COC1CC(CC2CCC(C)C(C(C)C(=O)O)O2)OC2(OC(C)(C3CCC(C)(C4OC(C5OC(O)(CCl)C(C)CC5C)CC4C)O3)CC2C)C1C (stereo not shown) | Vaccina | 0,49 µg/ml
CCCCOCC1(O)OC(C2CC(C)C(C3(C)CCC(C4(C)CC(C)C5(OC(CC6CCC(C)C(C(C)C(=O)O)O6)CC(OC)C5C)O4)O3)O2)C(C)CC1C (stereo not shown) | Vaccina | 4,44 µg/ml

# context switch: different compound, same MHK
Challenge: Look up MHK for this compound: COC1CC(CC2CCC(C)C(C(C)C(=O)O)O2)OC2(OC(C)(C3CCC(C)(C4OC(C5OC(O)(CO[Si](c6ccccc6)(c6ccccc6)C(C)(C)C)C(C)CC5C)CC4C)O3)CC2C)C1C (stereo not shown)
Response given: 4,44 µg/ml

====

Each item that follows carries a reported MIC.
system: Strept. faecium (D); test: Agar dilution test (Lorian), antibacterial activity; assay type: cell-based; details: Enterococcus faecium; Strept. faecium (D); Müller Hinton Agar, 16 to 18 h at 37°C; read-out: MIC
The figure you give is taken to be in µg/mL; do not add the unit.

Below, each entry is followed by its recorded MIC result.
molecule | readoutValue
COC1CC(CC2CCC(C)C(C(C)C(=O)O)O2)OC2(OC(C)(C3CCC(C)(C4OC(C5OC(O)(C[N+](=O)[O-])C(C)CC5C)CC4C)O3)CC2C)C1C (stereo not shown) [Beispiel 5] | 0.098
COC1CC(CC2CCC(C)C(C(C)C(=O)O)O2)OC2(OC(C)(C3CCC(C)(C4OC(C5OC(O)(CBr)C(C)CC5C)CC4C)O3)CC2C)C1C (stereo not shown) [Beispiel 3] | 0.098
COC1CC(CC2CCC(C)C(C(C)C(=O)O)O2)OC2(OC(C)(C3CCC(C)(C4OC(C5OC(O)(CCl)C(C)CC5C)CC4C)O3)CC2C)C1C (stereo not shown) [Beispiel 2] | 0.391

Now examine the next entry.
Challenge: GET /values?readout=MIC&item= COCC1(O)OC(C2CC(C)C(C3(C)CCC(C4(C)CC(C)C5(OC(CC6CCC(C)C(C(C)C(=O)O)O6)CC(OC)C5C)O4)O3)O2)C(C)CC1C (stereo not shown) [Beispiel 7]
Response given: 3.13
